Target: Replicase polyprotein 1ab (Severe acute respiratory syndrome coronavirus 2, UniProt P0DTD1)
Experiment: Stabilization in SARS-CoV-2 MPro assessed as binding constant incubated for 30 mins in presence of DTT by thermal shift binding assay
measuredParameter: pKd
Quick note: pKd means taking -log10 of the concentration in moles per liter.

GET /values?readout=pKd&item= C[C@H](NC(=O)[C@@H](c1cccnc1)N(C(=O)c1ccco1)c1ccc(-c2ccccc2)cc1)c1ccccc1 5.03

----------
Test: Selectivity Index, ratio of CC50 for african green monkey vero E6 cells to EC50 for antiviral activity against SARS-Cov-2 USA-WA1/2020 isolate infected in African green monkey Vero E6 cells
Type: toxicity, Vero C1008
Settings: read-out: Ratio CC50/EC50
measuredParameter: selectivity ratio
Answer using only a numeral; do not append any unit.

C[C@H](NC(=O)C(c1cnccn1)N(C(=O)c1c[nH]cn1)c1ccc(-c2ccccc2)cc1)c1ccccc1 (stereo not given in full) :: 32.6

GET /values?readout=selectivity ratio&item= C[C@H](NC(=O)C(c1cccnc1)N(C(=O)c1c[nH]cn1)c1ccc(-c2ccccc2)cc1)c1ccccc1 (stereo not given in full) 9.9

----------
Experiment: Cytotoxicity against African green monkey Vero E6 cells assessed as cell viability incubated for 5 days by neutral red uptake based microplate reader method
Assay type: toxicity, Vero C1008
Settings: chlorocebus sabaeus, time 5 day
measuredParameter: CC50 at 120 h

C[C@H](NC(=O)C(c1cnccn1)N(C(=O)c1ccco1)c1ccc(-c2ccccc2)cc1)c1ccccc1 (some centres undefined) :: > 200 µM
C[C@H](NC(=O)C(c1cccnc1)N(C(=O)c1ccco1)c1ccc(-c2ccccn2)cc1)c1ccccc1 (some centres undefined) :: 236 µM

GET /values?readout=CC50 at 120 h&item= C[C@H](NC(=O)[C@@H](c1cccnc1)N(C(=O)c1ccco1)c1ccc(-c2ccccc2)cc1)c1ccccc1 > 100 µM

GET /values?readout=CC50 at 120 h&item= C[C@H](NC(=O)C(c1cccnc1)N(C(=O)c1ccco1)c1ccc(-n2cccc2)cc1)c1ccccc1 (some centres undefined) > 200 µM

GET /values?readout=CC50 at 120 h&item= CC(C)(C)c1ccc(N(C(=O)c2ccco2)C(C(=O)NC2CC2)c2cccnc2)cc1 (centres undefined) 52.8 µM

GET /values?readout=CC50 at 120 h&item= C[C@H](NC(=O)C(c1cccnc1)N(C(=O)c1ccco1)c1ccc(-c2cccs2)cc1)c1ccccc1 (some centres undefined) 89.6 µM

GET /values?readout=CC50 at 120 h&item= C[C@H](NC(=O)C(c1cccnc1)N(C(=O)c1ccno1)c1ccc(C2CCCCC2)cc1)c1ccccc1 (some centres undefined) 17.5 µM

GET /values?readout=CC50 at 120 h&item= C[C@H](NC(=O)C(c1cccnc1)N(C(=O)c1ccco1)c1ccc(-c2ccccc2)cc1)c1ccccc1 (some centres undefined) > 200 µM

GET /values?readout=CC50 at 120 h&item= O=C(NC1CCCCC1)C(c1cccnc1)N(C(=O)c1ccco1)c1ccc(-c2ccccc2)cc1 (centres undefined) 53.5 µM

GET /values?readout=CC50 at 120 h&item= CC(C)(C)NC(=O)C(c1cccnc1)N(C(=O)c1ccco1)c1ccc(C(C)(C)C)cc1 (centres undefined) > 125 µM

GET /values?readout=CC50 at 120 h&item= C[C@H](NC(=O)C(c1cccnc1)N(C(=O)c1cnco1)c1ccc(-c2ccccc2)cc1)c1ccccc1 (some centres undefined) 67 µM

GET /values?readout=CC50 at 120 h&item= C[C@H](NC(=O)C(c1cccnc1)N(C(=O)c1ccno1)c1ccc(-c2ccccc2)cc1)c1ccccc1 (some centres undefined) > 200 µM

GET /values?readout=CC50 at 120 h&item= CC(C)(C)c1ccc(N(C(=O)c2ccco2)C(C(=O)NC2CCCC2)c2cccnc2)cc1 (centres undefined) 101 µM

GET /values?readout=CC50 at 120 h&item= CC(C)(C)c1ccc(N(C(=O)c2ccco2)C(C(=O)NC2CCCCC2)c2cccnc2)cc1 (centres undefined) 18.2 µM

GET /values?readout=CC50 at 120 h&item= C[C@H](NC(=O)C(c1cccnc1)N(C(=O)c1ccco1)c1ccc([Si](C)(C)C)cc1)c1ccccc1 (some centres undefined) 19.4 µM

GET /values?readout=CC50 at 120 h&item= CC(C)(C)NC(=O)C(c1cnccn1)N(C(=O)c1ccco1)c1ccc(C(C)(C)C)cc1 (centres undefined) 138 µM

GET /values?readout=CC50 at 120 h&item= CC(C)(C)CC(C)(C)NC(=O)C(c1cccnc1)N(C(=O)c1ccco1)c1ccc(-c2ccccc2)cc1 (centres undefined) 148 µM

GET /values?readout=CC50 at 120 h&item= C[C@H](NC(=O)C(c1cccnc1)N(C(=O)c1ccco1)c1ccc(-c2ccco2)cc1)c1ccccc1 (some centres undefined) 56.4 µM

GET /values?readout=CC50 at 120 h&item= C[C@H](NC(=O)C(c1cnccn1)N(C(=O)c1c[nH]cn1)c1ccc(-c2ccccc2)cc1)c1ccccc1 (some centres undefined) 148 µM

GET /values?readout=CC50 at 120 h&item= C[C@H](NC(=O)C(c1cccnc1)N(C(=O)c1c[nH]cn1)c1ccc(-c2ccccc2)cc1)c1ccccc1 (some centres undefined) 129 µM

GET /values?readout=CC50 at 120 h&item= O=C(NCC(c1ccccc1)c1ccccc1)C(c1cccnc1)N(C(=O)c1ccco1)c1ccc(-c2ccccc2)cc1 (centres undefined) > 200 µM

GET /values?readout=CC50 at 120 h&item= O=C(NCCCc1ccccc1)C(c1cccnc1)N(C(=O)c1ccco1)c1ccc(-c2ccccc2)cc1 (centres undefined) > 200 µM

GET /values?readout=CC50 at 120 h&item= O=C(NC1CCCC1)C(c1cccnc1)N(C(=O)c1ccco1)c1ccc(-c2ccccc2)cc1 (centres undefined) > 200 µM

GET /values?readout=CC50 at 120 h&item= C[C@H](NC(=O)C(c1cccnc1)N(C(=O)c1ccco1)c1ccc(C2CCCCC2)cc1)c1ccccc1 (some centres undefined) 9.61 µM

----------
Biological target: Procathepsin L (Homo sapiens, UniProt P07711)
Sequence (P07711 whole entry): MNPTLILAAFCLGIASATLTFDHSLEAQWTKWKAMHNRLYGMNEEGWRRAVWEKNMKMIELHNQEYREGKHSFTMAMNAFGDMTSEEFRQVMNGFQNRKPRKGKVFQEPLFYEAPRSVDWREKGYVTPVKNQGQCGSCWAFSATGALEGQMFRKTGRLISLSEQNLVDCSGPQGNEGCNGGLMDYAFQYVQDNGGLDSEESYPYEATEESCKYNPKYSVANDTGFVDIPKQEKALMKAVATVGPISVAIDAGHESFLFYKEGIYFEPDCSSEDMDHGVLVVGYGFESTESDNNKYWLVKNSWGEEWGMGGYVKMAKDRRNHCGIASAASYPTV
Experiment: Non-covalent inhibition of Cathepsin L (unknown origin) incubated for 30 mins using FRET substrate measured for 1 hr by FRET-based enzymatic assay
measuredParameter: pIC50
Quick note: pIC50 means taking -log10 of the concentration in moles per liter.

GET /values?readout=pIC50&item= C[C@H](NC(=O)[C@@H](c1cccnc1)N(C(=O)c1ccco1)c1ccc(-c2ccccc2)cc1)c1ccccc1 4.98

----------
Biological target: Calpain-1 catalytic subunit (Homo sapiens, UniProt P07384)
Sequence (P07384 whole entry): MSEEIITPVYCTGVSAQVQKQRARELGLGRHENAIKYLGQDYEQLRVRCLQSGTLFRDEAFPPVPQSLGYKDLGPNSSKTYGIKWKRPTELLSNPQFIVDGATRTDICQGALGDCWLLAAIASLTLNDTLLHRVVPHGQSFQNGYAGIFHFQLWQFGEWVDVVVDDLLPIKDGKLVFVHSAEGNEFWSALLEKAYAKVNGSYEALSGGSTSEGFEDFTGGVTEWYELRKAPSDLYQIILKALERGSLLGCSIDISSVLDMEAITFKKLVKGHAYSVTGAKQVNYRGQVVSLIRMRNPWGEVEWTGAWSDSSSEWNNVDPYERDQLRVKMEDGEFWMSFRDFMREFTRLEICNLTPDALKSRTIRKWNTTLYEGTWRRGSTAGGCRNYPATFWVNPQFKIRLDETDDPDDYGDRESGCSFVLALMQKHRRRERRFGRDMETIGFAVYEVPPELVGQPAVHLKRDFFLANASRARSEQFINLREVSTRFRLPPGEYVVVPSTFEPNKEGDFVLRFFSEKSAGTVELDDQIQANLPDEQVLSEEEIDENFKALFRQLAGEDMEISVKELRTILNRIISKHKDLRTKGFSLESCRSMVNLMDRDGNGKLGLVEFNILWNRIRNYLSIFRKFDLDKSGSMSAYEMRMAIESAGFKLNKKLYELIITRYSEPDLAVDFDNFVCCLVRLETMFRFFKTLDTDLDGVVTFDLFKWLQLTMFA
Assay: Non-covalent inhibition of Calpain 1 (unknown origin) incubated for 1 hr by FRET-based enzymatic assay
measuredParameter: pIC50
Quick note: pIC50 means taking -log10 of the concentration in moles per liter.

Request - read-out pIC50 | tested on Calpain-1 catalytic subunit (Homo sapiens, UniProt P07384) | molecule C[C@H](NC(=O)[C@@H](c1cccnc1)N(C(=O)c1ccco1)c1ccc(-c2ccccc2)cc1)c1ccccc1 5.22

----------
Molecular target: Replicase polyprotein 1ab (Severe acute respiratory syndrome coronavirus 2)
Test: Non-covalent inhibition of SARS-Cov-2 -Mpro incubated for 30 mins using FRET substrate measured for 1 hr by FRET-based enzymatic assay
Below, each entry is listed alongside its reported pIC50.
Quick note: pIC50 means taking -log10 of the concentration in moles per liter.

// below: answered molecules
O=C(NC1CC1)C(c1cccnc1)N(C(=O)c1ccco1)c1ccc(-c2ccccc2)cc1 (stereo not given) :: 4.92
CC(C)(C)c1ccc(N(C(=O)c2ccco2)C(C(=O)NC2CCCCC2)c2cccnc2)cc1 (stereo not given) :: 5.62

GET /values?readout=pIC50&item= C[C@H](NC(=O)C(c1cccnc1)N(C(=O)c1ccco1)c1ccc(-c2ccccc2)cc1)c1ccccc1 (stereo not given in full) 6.18

----------
Biological target: Calpain-1 catalytic subunit (Homo sapiens, UniProt P07384)
Assay: Covalent inhibition of Calpain 1 (unknown origin) incubated for 1 hr by FRET-based enzymatic assay
pIC50: −log10 of the molar value.
measuredParameter: pIC50

Request - read-out pIC50 | tested on Calpain-1 catalytic subunit (Homo sapiens, UniProt P07384) | molecule CC(C)C[C@H](NC(=O)OCc1ccccc1)C(=O)N[C@@H](C[C@@H]1CCNC1=O)C(O)S(=O)(=O)O (stereo partly specified) ≥ 7.13

----------
Below, each entry is listed alongside its reported selectivity ratio.
Test: Selectivity Index, ratio of CC50 for african green monkey vero E6 cells to EC50 for antiviral activity against SARS-Cov-2 USA-WA1/2020 isolate infected in African green monkey Vero E6 cells
Assay type: toxicity, Vero C1008
Details: read-out: Ratio CC50/EC50

// below: answered molecules
O=C(NCCCc1ccccc1)C(c1cccnc1)N(C(=O)c1ccco1)c1ccc(-c2ccccc2)cc1 (stereo not drawn) :: > 98
C[C@H](NC(=O)C(c1cnccn1)N(C(=O)c1ccco1)c1ccc(-c2ccccc2)cc1)c1ccccc1 (stereo partly drawn) :: > 244

Now examine the next entry.
GET /values?readout=selectivity ratio&item= C[C@H](NC(=O)C(c1cccnc1)N(C(=O)c1ccco1)c1ccc(-n2cccc2)cc1)c1ccccc1 (stereo partly drawn) > 116
